I'd appreciate it if you could supply cytotoxicity at 70.5 h values for the items below.
- protocolNotes: Human HepG2 cell viability assay in 384 well format
- Type: toxicity, cell-based
- Set-up: dose 125 nL, time 70.5 hour; concentration not given beside the values
- experimentalSetup: HepG2 cells, read-out: Inhibition
Numbers only, in %.

Quick one: give me cytotoxicity at 70.5 h for each item below, same order please.
1. O=C(C[S+]([O-])Cc1c(Cl)cccc1Cl)N1CCc2sccc2C1 (configuration not stated)
2. COc1ccc(C(=O)CCc2nc(C3CC3)no2)cc1F
3. CN(C)C(=O)c1cccc(CCNc2ccccc2S(C)(=O)=O)c1

1: -7.37; 2: -13.6; 3: -0.957

Items follow; give cytotoxicity at 70.5 h for each.
1. c1ccc(OCCSC2=NCCN2)cc1
2. Fc1ccc(CN2CCc3ncnc(C4CC4)c3CC2)cc1

-2.35
1.98

Provide cytotoxicity at 70.5 h for all items below, preserving their order.
1. Cc1cccc(CN2C[C@@H]3COC[C@]3(CNC(=O)N3CCCC3)C2)n1
2. Cc1cc(CC(C)NC(=O)c2cccc(CC3CCNCC3)c2)[nH]n1 (configuration not stated)
3. Cn1ncc2c1C(COCC1CC1)CN(Cc1ccncc1)C2 (configuration not stated)
4. Cn1c2c(c(=O)n1C)CN(C(=O)c1ccncc1F)CCC2

1: 0.0201; 2: -2.93; 3: -8.73; 4: 5.23

====

- protocolNotes: Human HepG2 cell viability assay in 384 well format
- Assay type: toxicity, cell-based
- Parameters: dose 125 nL, time 70.5 hour; concentration not given beside the values
- experimentalSetup: HepG2 cells, read-out: Inhibition
quantityName: cytotoxicity at 70.5 h (%)
Answers are plain numbers, in %.

compound=COc1ccc2cc(C(=O)NCCc3nc(C)no3)[nH]c2c1 unitdescriptor=% endpointvalue=5.04

Take each entry in turn and give its cytotoxicity at 70.5 h.
1. CC(=O)N1CC[C@@H]2O[C@@H](COCc3csc(C)n3)CC[C@@H]21
2. CCN(CC)CCNS(=O)(=O)c1cccc(CSC)c1
3. O=C(NCCc1nncn1C1CC1)c1cnn(Cc2ccccc2)c1
4. COCC(NC(=O)c1cc(C)n(C)n1)c1cccc(C(F)(F)F)c1 (centres undefined)
5. Cc1noc(Cl)c1CCC(=O)N1CCc2sccc2C1
6. CCNc1nc2c(s1)C(=O)CN(C(=O)NCCc1ccccc1)C2
7. COCC1CC2(CCN(Cc3ccc(OC)cc3)CC2)CN1C(C)C (centres undefined)

12
-8.72
-11.1
4.67
-1.52
-17.7
-13.7

I need cytotoxicity at 70.5 h for every entry listed below, if you could help.
1. Cn1nccc1-c1nc2c(cc1C(=O)O)CCN(CC1CC1)CC2
2. COCCn1c(-c2cccc(OC)c2)cnc1NC(=O)NCCC(C)C
3. Cc1ccccc1-n1cnnc1SCC(=O)NCC1CCCO1 (centres undefined)
4. COc1cncc(N2CCN(Cc3ccncc3Cl)CC2)n1

1. 12.7
2. -12.5
3. -8.74
4. -9.33

// for each compound below, give its cytotoxicity at 70.5 h
1. Cc1cc(NC(=O)NCc2ccccn2)n(C)n1
2. COc1c(C2CCCN2C(=O)c2ccc3c(c2)OCO3)c(C)nn1C (centres undefined)
3. Cc1cn2nc(N3CCn4c(nnc4C(C)C)C3)sc2n1
4. COCCOc1ccc(CNCC2CNc3cc(C)nn3C2)cn1 (centres undefined)

1: -6.19; 2: -2.19; 3: 12; 4: -4.87

I'm hoping you can list cytotoxicity at 70.5 h for every compound here, please.
1. CN1CCN2C(=O)N(C3CCOCC3)C[C@H]2C1
2. COc1nn(C)c2c1CCCN(C(=O)c1ccc3ccccc3n1)C2

1. -2.12
2. 8.68

Go through the list and state cytotoxicity at 70.5 h for each entry.
1. Cc1ncc(CN(C)C(=O)Nc2cccc(C(=O)N3CCOCC3)c2)s1
2. O=C(CNc1cccc(S(=O)(=O)C(F)F)c1)NCc1ccco1
3. Cc1nc(Cn2cnc3c(c(Br)nn3C)c2=O)cs1
4. COc1ccc(C)cc1CNCc1ccc(-n2nc(C)cc2C)nc1
5. Cc1cccnc1CN(C)C(C(=O)O)c1ccc(-c2ccn[nH]2)cc1 (centres undefined)

[-2.6, 11.3, 11.6, 5.93, -3.62]

In plain terms, Cc1cccc(SC2CCN(Cc3nc(CC4CC4)no3)CC2)c1 has a documented cytotoxicity at 70.5 h of 0.0623

====

Give measured cytotoxicity at 70.5 h for each item. Keep answers brief.
- protocolNotes: Human HepG2 cell viability assay in 384 well format
- Type: toxicity, cell-based
- Set-up: dose 125 nL, time 70.5 hour; concentration not given beside the values
- experimentalSetup: HepG2 cells, read-out: Inhibition
One number for each entry, in %.

compound="COCCN1CC(C(=O)NCc2ccc(C)s2)CC1=O (stereo not drawn)" quantityname="cytotoxicity at 70.5 h" endpointvalue=-1.18
compound="CC(C(=O)N1CCCN(c2ccccc2C#N)CC1)n1cccn1 (stereo not drawn)" quantityname="cytotoxicity at 70.5 h" endpointvalue=-7.8
compound=CN1CCN([C@@H]2CN(C(=O)c3cc4cccc(F)c4[nH]3)C[C@H]2O)CC1 quantityname="cytotoxicity at 70.5 h" endpointvalue=-1.94
compound=O=C(c1ccnnc1)N1CCO[C@H]2[C@@H](OCc3cccnc3)CC[C@@H]21 quantityname="cytotoxicity at 70.5 h" endpointvalue=-6.56
compound=Cn1cnc2c1CCN(Cc1noc(-c3ccccc3)n1)C2 quantityname="cytotoxicity at 70.5 h" endpointvalue=-6.44
compound="Cc1cn2nc(N3CCCC3C(=O)N3CCOCC3)sc2n1 (stereo not drawn)" quantityname="cytotoxicity at 70.5 h" endpointvalue=-15.3
compound="CC(Nc1ncnc2c1CCNCC2)c1nc2c(s1)CCCC2 (stereo not drawn)" quantityname="cytotoxicity at 70.5 h" endpointvalue=-5.82
compound=O=C(O)c1csc(S(=O)(=O)N2CCCc3cc(OC(F)F)ccc32)c1 quantityname="cytotoxicity at 70.5 h" endpointvalue=-10.7
compound=CN(C)C(=O)NC[C@@H]1OC[C@H]2CN(Cc3cccc(F)c3)CC[C@H]21 quantityname="cytotoxicity at 70.5 h" endpointvalue=-6.1
compound=CNC(=O)N1Cc2cc(F)ccc2C2(CCN(C)CC2)C1 quantityname="cytotoxicity at 70.5 h" endpointvalue=-1.35

Would you mind giving cytotoxicity at 70.5 h for every compound in the list below?
1. CC(C)c1noc(CCC(=O)NC(C)c2nnc3n2CCC3)n1 (stereo not drawn)
2. Cc1ccc(C(=O)NCCC2CN(C3CCCC3)CCO2)c(C)c1 (stereo not drawn)
3. CCN(Cc1cccs1)S(=O)(=O)N(C)C(C)C

[0.884, -4.25, -18.1]

====

- protocolNotes: Human HepG2 cell viability assay in 384 well format
- Format: toxicity, cell-based
- Parameters: dose 125 nL, time 70.5 hour; concentration not given beside the values
- experimentalSetup: HepG2 cells, read-out: Inhibition
I'd appreciate it if you could supply cytotoxicity at 70.5 h values for the items below.
Numbers only, in %.

molecule="Cn1ncc2c1NC(=O)CC2c1cc2c(cc1Cl)OCO2 (centres undefined)" unitdescriptor=% endpointvalue=17.7

Items follow; give cytotoxicity at 70.5 h for each.
1. Cc1cccc(OC2CCN(C(=O)c3ccc4c(c3)OCO4)CC2)n1
2. COc1ccc(C)cc1CN(C)CCCNS(C)(=O)=O
3. Cc1c(-c2c(-c3ccccc3)ncn2[C@H](CO)C(=O)O)cnn1C
4. CCOCC1CCN(C(=O)Nc2ccc3c(c2)CCCO3)C1 (centres undefined)

-7.71
7.17
-7.01
17.3

For every listed record, write down its cytotoxicity at 70.5 h.
1. CC(NCCCc1cnn(C)c1)c1ccc(Br)s1 (centres undefined)
2. O=C(NCC1CC1)[C@H]1C[C@H]2OCC[C@H]2N(CCc2ccccc2)C1

-1.02
-1.31

Hey, quick one: what's cytotoxicity at 70.5 h for each of these?
1. CC(CNC(=O)N1CCN(Cc2ccon2)CC1)Cc1cccs1 (centres undefined)
2. Cc1ccc(SCCCNC(=O)c2cn([C@H]3CC[C@@H](N)CC3)nn2)cc1
3. CCOc1cc(N2CCN(C(=O)c3ccc(OC)cc3)CC2)nc(C)n1
4. Cc1nn(CCNc2ncnc3c2NC(=O)CN3)c(C)c1Cl
5. CN(C)C(=O)c1noc2c1CN(C(=O)CCCN1CCCCC1)CC2
6. Oc1ccccc1-c1n[nH]c(C2CC2)n1
7. CCOc1cc(C)nc(N2CCN(C(=O)CN(C)C3CC3)CC2)n1
8. CN1C[C@@H]2COC[C@]2(C(=O)NCCc2cccs2)C1

[-2.44, 20.6, 5.38, -8.12, 10.8, 11.6, -9.22, -5.55]

Provide reported cytotoxicity at 70.5 h for each item, in the same order as listed.
1. CC(C)=CCN1C[C@H]2CC[C@@H]1CN(C(=O)c1ccc3[nH]cnc3c1)C2
2. Cc1nc(CN(C)C(=O)Nc2cccc(COC(C)C)c2C)no1
3. CC(C)NCC1(O)CCCN(CCC2CCCCC2)C1=O (centres undefined)
4. OCCN1CCC(CNCc2ccc(N3CCCCC3)cc2)CC1

1: 3.14; 2: -4.14; 3: -7.37; 4: 1.15

The origin of these recorded values is ChEMBL document CHEMBL3507680.
